Listed next: entries and their corresponding activity at 10 µM.
# System: MDA-MB-468
# Test details: NCI60 one-dose screen
# Assay type: cell-based
# Test parameters: Homo sapiens, MDA-MB-468, read-out: Growth percent

Compound | Unit symbol | activity at 10 µM
CC[C@]12C=CCN3CC[C@@]4(c5ccc(OC)cc5N(C)[C@H]4[C@@](O)(C(=O)OC)[C@@H]1OC(=O)CCCC[P+](C1CCCCC1)(C1CCCCC1)C1CCCCC1)[C@@H]32 [10d] | % | -79
CC[C@]12C=CCN3CC[C@@]4(c5ccc(OC)cc5N(C)[C@H]4[C@@](O)(C(=O)OC)[C@@H]1OC(=O)CCCC[P+](c1ccc(OC)cc1)(c1ccc(OC)cc1)c1ccc(OC)cc1)[C@@H]32 [10b] | % | -92.7
CCC12C=CCN3CCC4(c5ccc(OC)cc5N(C)C4C(O)(C(=O)OC)C1OC(=O)CCC[P+](c1ccc(C)cc1)(c1ccc(C)cc1)c1ccc(C)cc1)C32 (stereo not drawn) | % | -92.1
CC[C@]12C=CCN3CC[C@@]4(c5ccc(OC)cc5N(C)[C@H]4[C@@](O)(C(=O)OC)[C@@H]1OC(=O)CCC[P+](C1CCCCC1)(C1CCCCC1)C1CCCCC1)[C@@H]32 | % | -79.6
CC[C@]12C=CCN3CC[C@@]4(c5ccc(OC)cc5N(C)[C@H]4[C@@](O)(C(=O)OC)[C@@H]1OC(=O)CCC[P+](c1ccccc1)(c1ccccc1)c1ccccc1OC)[C@@H]32 | % | -84.6
CC[C@]12C=CCN3CC[C@@]4(c5ccc(OC)cc5N(C)[C@H]4[C@@](O)(C(=O)OC)[C@@H]1OC(=O)CCCC[P+](c1ccc(C)cc1)(c1ccc(C)cc1)c1ccc(C)cc1)[C@@H]32 [10a] | % | -92.5
CC[C@]12C=CCN3CC[C@@]4(c5ccc(OC)cc5N(C)[C@H]4[C@@](O)(C(=O)OC)[C@@H]1OC(=O)CCC[P+](c1ccc(F)cc1)(c1ccc(F)cc1)c1ccc(F)cc1)[C@@H]32 | % | -74.6
CC[C@]12C=CCN3CC[C@@]4(c5ccc(OC)cc5N(C)[C@H]4[C@@](O)(C(=O)OC)[C@@H]1OC(=O)CCCC[P+](c1ccccc1)(c1ccccc1)c1ccccc1)[C@@H]32 [compound 4, reference compound] | % | -63.9
CCC12C=CCN3CC[C@@]4(c5ccc(OC)cc5N(C)[C@H]4[C@@](O)(C(=O)OC)[C@@H]1OC(C)=O)[C@@H]32 (stereo partly drawn) | % | 102

====

# Tested on: 786-0
# Test details: NCI60 one-dose screen
# Type: cell-based
# Test parameters: Homo sapiens, 786-0, read-out: Growth percent

Compound | Measurement target | activity at 10 µM (%)
CC[C@]12C=CCN3CC[C@@]4(c5ccc(OC)cc5N(C)[C@H]4[C@@](O)(C(=O)OC)[C@@H]1OC(=O)CCCC[P+](c1ccc(OC)cc1)(c1ccc(OC)cc1)c1ccc(OC)cc1)[C@@H]32 [10b] | 786-0 | -92.9
CC[C@]12C=CCN3CC[C@@]4(c5ccc(OC)cc5N(C)[C@H]4[C@@](O)(C(=O)OC)[C@@H]1OC(=O)CCC[P+](c1ccccc1)(c1ccccc1)c1ccccc1OC)[C@@H]32 | 786-0 | -74.1
CC[C@]12C=CCN3CC[C@@]4(c5ccc(OC)cc5N(C)[C@H]4[C@@](O)(C(=O)OC)[C@@H]1OC(=O)CCCC[P+](c1ccccc1)(c1ccccc1)c1ccccc1)[C@@H]32 [compound 4, reference compound] | 786-0 | 57.2
